This collection of values is drawn from PubChem BioAssay (NCATS).

Test: qHTS of pediatric cancer cell lines to identify multiple opportunities for drug repurposing: Primary screen for LAN-5 cells (AID 1347100)
Details: LAN-5 neuroblastoma viability, CellTiter-Glo luminescence, 48 h; series mostly up to 46 µM
Inconclusive results are not listed. Activity calls are given as the source filed them. The call rests on the fitted dose curve; in most records, active means well fitted cell-killing curve with a large enough effect; inconclusive means small, poorly fitted or top-dose-only effect; inactive means no such curve, though single readings can be large or run the other way.
Can you answer with just one of these options? active, inactive

Illustrative cases are given below, each with its answer.
smiles_str=CC1(C)CC(O)CC(C)(C)N1[O] class_assignment=inactive
smiles_str=c1coc(CNc2ncnc3nc[nH]c23)c1 class_assignment=inactive
smiles_str=CC(C)(O)CC[C@@H](O)[C@](C)(O)[C@H]1CC[C@@]2(O)C3=CC(=O)[C@@H]4C[C@@H](O)[C@@H](O)C[C@]4(C)[C@@H]3CC[C@]12C class_assignment=inactive
smiles_str=O=C(NNC(=O)c1ccc(CNS(=O)(=O)c2ccc(F)c(Cl)c2)cc1)c1ccccc1 class_assignment=inactive

Query block: Outcome? `CCN(CC)CCNC(=O)c1c(C)[nH]c(C=C2C(=O)Nc3ccc(F)cc32)c1C`
Result block: active

Query block: Outcome? `C[C@H](O)[C@@H]1C(=O)N2C(C(=O)O)=C(S[C@@H]3CN[C@H](CNS(N)(=O)=O)C3)[C@@H](C)[C@@H]12`
Result block: inactive

Query block: Outcome? `N#CNC(=NCCCCCCOc1ccc(Cl)cc1)Nc1ccncc1`
Result block: active

###

Documented remaining proliferation (% of control), lower = more inhibition across a set of compounds
Assay: qHTS profiling for inhibitors of Plasmodium falciparum (HB3) proliferation (AID 743324);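 further: 100% = DMSO vehicle wells and 0% = artemisinin-treated control wells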
Settings: Plasmodium falciparum HB3 blood-stage proliferation; at 28.7 µM (top of the series)
Reply numerically in %, unit not repeated.

Consider the reported remaining proliferation (% of control), lower = more inhibition for these compounds:
smiles_str=O=C(O)CCCCCC(=O)NN=C1CCCC1 numeric_value=107
smiles_str=NC(=O)c1ncn([C@@H]2O[C@H](CO)[C@@H](O)[C@@H]2O)c1N numeric_value=92.9
smiles_str=Cn1c(Nc2ccc(C(F)(F)F)cc2)nc2cc(Oc3ccnc(-c4ncc(C(F)(F)F)[nH]4)c3)ccc21 numeric_value=-0.79

Consider the record given below.
Query block: Which remaining proliferation (% of control), lower = more inhibition value belongs to `Nc1ncn([C@@H]2O[C@H](CO)[C@@H](O)[C@@H]2O)c(=O)n1` ?
Result block: 89.3

###

Documented parasite growth, % of DMSO control across a set of compounds
Experiment: qHTS profiling of the MIPE4 collection as inhibitors of Plasmodium falciparum (3D7) proliferation (AID 743344);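 further: scaled between DMSO vehicle wells and 0.29 µM artemisinin as full inhibition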
Conditions: P. falciparum 3D7 in erythrocytes, SYBR Green DNA fluorescence, 72 h; at 28.5 µM (top of the series) unless noted

Query block: Which parasite growth, % of DMSO control value belongs to `CCN1CCN(C(=O)N[C@H](C(=O)N[C@@H]2C(=O)N3C(C(=O)O)=C(CSc4nnnn4C)CS[C@@H]23)c2ccc(O)cc2)C(=O)C1=O` ?
Result block: 91.3% [at 9.64 µM]

Query block: Which parasite growth, % of DMSO control value belongs to C=C1CCC2[C@](C)(CO)C(O)CC[C@]2(C)C1CC=C1C(=O)OCC1O (stereo partly drawn) ?
Result block: 94.9% [at 57.5 µM]

Query block: Which parasite growth, % of DMSO control value belongs to `CCC[C@H]1C[C@H](C(=O)N[C@@H]([C@@H]2O[C@@H](SC)[C@@H](O)[C@@H](O)[C@@H]2O)[C@H](C)Cl)N(C)C1` ?
Result block: 30.4%
